- System: LOX IMVI melanoma
- MEASUREMENT DESCRIPTION: NCI-60 one-dose screen, 48 h (100 = growth as untreated, 0 = no growth, -100 = all killed)
- CONDITIONS: 10 µM unless noted
The panel holds about 83,000 compounds, 20% with a hit somewhere; the sample as a whole holds those more often.
ASSAY METRIC: growth (%)
# number only, unit % dropped from output

Previously resolved entries follow.
COc1ccc(/C(C)=C(\c2ccc(Cl)cc2)c2ccc(OCCCN(C)C)cc2)cc1
22.1
O=C(Nc1ncc(Cc2ccccc2Cl)s1)c1ccc2c(c1)OCCO2
23.6
COc1cc(/C=C/C(=O)c2ccc(-n3cc(CN4CCN(c5cc6c(cc5F)c(=O)c(C(=O)O)cn6C5CC5)CC4)nn3)cc2)cc(OC)c1OC
55.7
CC(CN)[C@@H]1CC[C@]2(CO)CC[C@]3(C)[C@H](CC[C@@H]4[C@@]5(C)CCC(NCCO)C(C)(C)[C@@H]5CC[C@]43C)[C@@H]12 (stereo not given in full)
-64.4

Note to self: growth recorded for Nc1c(C(=O)c2ccc(Cl)cc2)sc(Nc2ccccc2)c1-c1nc2ccccc2s1 was 17.8

Note to self: growth recorded for CCCCCN(CCCCC)CC(O)c1c(Cl)ccc2ccccc12 (stereo not given) was 71.6

Note to self: growth recorded for O=C(Nc1ccc(Oc2cccc(F)c2)c(Cl)c1)c1cnccn1 was 43.9

Note to self: growth recorded for COc1cc(NC(=O)c2cncnc2Nc2ccc3c(ccn3Cc3cccc(F)c3)c2)cc(OC)c1 was 40.3

Note to self: growth recorded for COC(=O)c1cc(-c2cc(OC)c(OC)c(OC)c2)[nH]c1N/N=C/c1c(Cl)cccc1Cl was 19.2
